Target: PTRGER4 (EP4) (Homo sapiens (Human), UniProt P35408)
Sequence (P35408 whole entry, looked up): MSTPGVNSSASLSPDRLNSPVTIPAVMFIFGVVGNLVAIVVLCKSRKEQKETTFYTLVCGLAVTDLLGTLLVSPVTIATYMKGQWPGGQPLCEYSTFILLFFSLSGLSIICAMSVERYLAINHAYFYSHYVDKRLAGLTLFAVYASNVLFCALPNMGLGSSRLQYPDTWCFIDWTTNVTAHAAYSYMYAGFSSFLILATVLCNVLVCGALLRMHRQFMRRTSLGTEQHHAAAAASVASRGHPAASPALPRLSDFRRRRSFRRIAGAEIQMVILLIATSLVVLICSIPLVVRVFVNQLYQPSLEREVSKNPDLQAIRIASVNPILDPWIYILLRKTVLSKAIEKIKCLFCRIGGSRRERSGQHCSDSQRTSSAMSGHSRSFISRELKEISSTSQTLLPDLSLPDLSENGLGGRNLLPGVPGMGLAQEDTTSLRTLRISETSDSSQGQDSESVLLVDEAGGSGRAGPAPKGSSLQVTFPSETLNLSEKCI
Test: hEP4 b-arrestin assay (PathHunter HEK 293 PTGER4 b-arrestin cells)
Assay type: cell-based
Settings: antagonistic activity on hEP4; mean where measured multiple times
Each entry below carries its reported IC50.
Answer in nM, number only, no unit symbol.

Below: 3 compounds and their reported IC50.
- smiles-data: "CCCSc1cc(-c2cc(NCCn3c(C)cc4c(C)c(F)cc(Cl)c43)ncn2)ccc1C(=O)O"
  measured-result: 875
- smiles-data: "COc1ccc(F)c2c1cc(C)n2CCNc1cc(-c2cc(F)c(S(N)(=O)=O)c(F)c2)ncn1"
  measured-result: 500
- smiles-data: "CCNc1cc(-c2cc(NCCn3c(C)cc4ccc(OC)cc43)ncn2)ccc1C(=O)O"
  measured-result: 350

Enquiry: API: value(readout= IC50, system= PTRGER4 (EP4) (Homo sapiens (Human), UniProt P35408), query= Cc1cc(F)cc2c1cc(C)n2CCNc1cc(-c2ccc(C(=O)O)c(C3CC3)c2)ncn1 )
Return: 772

Enquiry: API: value(readout= IC50, system= PTRGER4 (EP4) (Homo sapiens (Human), UniProt P35408), query= COc1cccc2c1cc(C)n2CCNc1cc(-c2ccc(C(=O)O)c(C3CC3)c2)ncn1 )
Return: 529

Enquiry: API: value(readout= IC50, system= PTRGER4 (EP4) (Homo sapiens (Human), UniProt P35408), query= CCc1cc(-c2cc(NCCn3c(C)cc4c(C)cccc43)ncn2)ccc1C(=O)O )
Return: 975

Enquiry: API: value(readout= IC50, system= PTRGER4 (EP4) (Homo sapiens (Human), UniProt P35408), query= COc1cccc2c1cc(C)n2CCNc1cc(-c2cc(Cl)c(C(=O)O)s2)ncn1 )
Return: 143

Enquiry: API: value(readout= IC50, system= PTRGER4 (EP4) (Homo sapiens (Human), UniProt P35408), query= CCNc1cc(-c2cc(NCCn3c(C)cc4c(C)ccc(F)c43)ncn2)cc(Cl)c1C(=O)O )
Return: 213
